molecular target: human ether-à-go-go-related gene (hERG) potassium channel (human, UniProt Q12809); assay: primary screen, population patch clamp on CHO cells stably expressing hERG; higher = less effect of the substance;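 note: peak tail current of the secondary pulse compared with the same well before compound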
Sequence (Q12809 whole entry, looked up): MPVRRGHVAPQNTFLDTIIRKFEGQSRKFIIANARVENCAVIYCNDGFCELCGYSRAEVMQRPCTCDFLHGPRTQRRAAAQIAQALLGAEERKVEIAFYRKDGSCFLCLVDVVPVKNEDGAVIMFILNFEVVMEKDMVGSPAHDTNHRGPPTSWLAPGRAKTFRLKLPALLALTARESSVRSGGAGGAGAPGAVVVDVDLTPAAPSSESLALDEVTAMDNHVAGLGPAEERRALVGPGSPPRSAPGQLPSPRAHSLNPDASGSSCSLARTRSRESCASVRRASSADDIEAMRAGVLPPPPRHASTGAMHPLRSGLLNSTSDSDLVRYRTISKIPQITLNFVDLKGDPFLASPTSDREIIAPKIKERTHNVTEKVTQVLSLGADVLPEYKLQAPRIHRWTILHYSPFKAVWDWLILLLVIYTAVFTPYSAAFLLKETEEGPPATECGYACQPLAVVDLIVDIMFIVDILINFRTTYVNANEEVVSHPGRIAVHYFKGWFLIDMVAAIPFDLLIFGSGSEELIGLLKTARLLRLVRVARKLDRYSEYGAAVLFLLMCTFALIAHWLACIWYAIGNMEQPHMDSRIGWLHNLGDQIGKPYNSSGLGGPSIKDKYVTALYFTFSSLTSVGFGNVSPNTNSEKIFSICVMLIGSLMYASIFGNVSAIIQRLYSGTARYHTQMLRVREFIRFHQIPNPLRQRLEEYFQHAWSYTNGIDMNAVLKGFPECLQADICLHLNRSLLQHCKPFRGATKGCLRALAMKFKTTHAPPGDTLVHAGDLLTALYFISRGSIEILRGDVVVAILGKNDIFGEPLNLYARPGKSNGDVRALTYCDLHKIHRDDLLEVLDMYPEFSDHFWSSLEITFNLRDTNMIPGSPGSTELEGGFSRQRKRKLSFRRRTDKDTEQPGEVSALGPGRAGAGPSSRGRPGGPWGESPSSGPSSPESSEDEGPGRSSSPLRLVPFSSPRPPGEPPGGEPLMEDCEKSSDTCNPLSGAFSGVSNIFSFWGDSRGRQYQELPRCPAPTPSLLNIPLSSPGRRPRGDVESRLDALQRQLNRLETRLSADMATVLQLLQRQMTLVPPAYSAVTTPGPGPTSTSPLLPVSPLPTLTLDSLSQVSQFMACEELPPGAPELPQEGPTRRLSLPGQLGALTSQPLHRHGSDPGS
In all, about 310,000 compounds went through this assay and about 14,000 (4.5%) showed an effect of 50% or more. The effect is printed as a negative number. The sample holds strong results, similar compounds and a random draw of the others, so the mix is not that of the screen.
hERG current change (%, negative = inhibition) at 10uM for assorted molecules
Quantity name: hERG current change (%, negative = inhibition) at 10uM (%)

molecule=COc1ccc(N2CN=C3SCC(=O)N3C2)cc1 meas_value=11.5
molecule=CCC(=O)N1CCc2cc(Br)cc(S(=O)(=O)CCC(=O)NCCc3ccccc3)c21 meas_value=3.68
molecule=COc1ccc(N2CCN(CCNC(=O)Nc3ccc([N+](=O)[O-])cc3OC)CC2)cc1 meas_value=-17.1
molecule=CCN(CC)S(=O)(=O)c1ccc(N2Cc3ccccc3C2=N)cc1 meas_value=-40.5
molecule=CN1Cc2c(N3CCOCC3)nc3sc(C#N)c(N)c3c2CC1(C)C meas_value=-8.57
molecule=Cc1ccc(C)c(S(=O)(=O)N2CCN(C(=O)Nc3ccccc3)CC2)c1 meas_value=-26.1
molecule=Cc1ccc(-c2csc(NC(=O)C3=NN(c4ccccc4)C(=O)CC3)n2)cc1 meas_value=3.35
molecule=C=CCOc1ccccc1CNc1ccccc1C meas_value=-15.7
molecule="ON1C2CCCCC2N(O)C1c1ccccc1F (stereo not drawn)" meas_value=16.7
molecule=CCCCOc1ccc(NS(=O)(=O)c2ccc(-n3cnnn3)cc2)cc1 meas_value=-3.42
molecule=O=[N+]([O-])c1ccccc1S(=O)(=O)NCCSc1ccccc1 meas_value=4.87
molecule=O=C(C1=C[C@H](c2coc3ccccc3c2=O)C[C@H](OCCCCO)O1)N1CCN(Cc2ccccc2)CC1 meas_value=-61.5
molecule=Cn1cccc1/C=C1\SC(=S)N(CC(=O)O)C1=O meas_value=1.83
molecule=Cc1nc2scc(C)n2c(=O)c1S(=O)(=O)Nc1ccc(F)cc1 meas_value=-22.8
molecule=CN1CCN(C(=O)C2=C[C@H](c3coc4ccccc4c3=O)C[C@H](OCCCCO)O2)CC1 meas_value=-20.3
molecule=O=C(CCNS(=O)(=O)c1ccccc1C(F)(F)F)NCCCSc1ccccc1 meas_value=-18.1
molecule=CCOC(=O)c1c(C)[nH]c(C)c1S(=O)(=O)NCC1CCN(Cc2cccc(Cl)c2)CC1 meas_value=-20.5
molecule=CN1CCN(C(=O)C2=C[C@@H](c3coc4ccccc4c3=O)C[C@@H](OCCCCO)O2)CC1 meas_value=0.749
molecule=O=c1ccc(-c2ccc(S(=O)(=O)NCC3CCN(Cc4ccccc4F)CC3)s2)n[nH]1 meas_value=-32.6
molecule=CCOc1cc(/C=N/NC(=O)c2nn(C)cc2Br)ccc1OCc1ccccc1 meas_value=5.59
molecule=O=C1c2ccccc2C(=O)N1c1ccc(S(=O)(=O)N2CCCCC2)cc1 meas_value=15.4
molecule=O=C(NCCCc1ccccc1)C1CCN(S(=O)(=O)c2ccc(F)cc2)CC1 meas_value=-60.7
molecule=O=C(NCCN1CCN(C(=O)c2cccc(Br)c2)CC1)C(=O)Nc1ccc(Br)cc1 meas_value=-42.1
molecule=O=c1ccc(-c2ccc(S(=O)(=O)NCC3CCN(Cc4cccc(F)c4)CC3)s2)n[nH]1 meas_value=-8.55
molecule=CCc1ccc(N2CCN(CCNC(=O)Nc3ccccc3)CC2)cc1 meas_value=-21.1
molecule=O=S(=O)(NCCCSc1ccccc1)c1ccccc1F meas_value=-79.6
molecule=O=C(C1=C[C@H](c2coc3ccccc3c2=O)C[C@H](OCCCCO)O1)N1CCOCC1 meas_value=-16
molecule=Cc1ccc(CN2CCC(CNS(=O)(=O)c3ccc(-c4ccc(=O)[nH]n4)s3)CC2)cc1 meas_value=-60.6
molecule=Clc1ccccc1CN1CCN(c2ccccc2Cl)CC1 meas_value=16
molecule=COc1ccc(/C=N/NC(=O)c2nn(C)cc2Br)cc1CSCc1ccco1 meas_value=-50.6
molecule="O=C(O)C1CC=CCC1C(=O)NC12CC3CC(CC(C3)C1)C2 (stereo not drawn)" meas_value=3.51
molecule=N=C1c2ccccc2CN1c1ccc(S(=O)(=O)N2CCCCC2)cc1 meas_value=-62.5
molecule=COC(=O)c1cc(S(=O)(=O)NCC2CCN(Cc3cccc(F)c3)CC2)c[nH]1 meas_value=-16.7
molecule=Cc1cccc(NS(=O)(=O)c2c(C)nc3scc(C)n3c2=O)c1 meas_value=-65.2
molecule=O=C(NCCN1CCN(C(=O)c2ccc([N+](=O)[O-])cc2)CC1)C(=O)NCc1ccccc1 meas_value=-78.9
molecule=Cc1ccc(S(=O)(=O)N2CCCCC2)cc1NC(=O)CSc1ccc2c(c1)OCCO2 meas_value=-9.32
molecule=CCc1cccc(NS(=O)(=O)c2c(C)nc3scc(C)n3c2=O)c1 meas_value=9.84
molecule=CCOC(=O)c1c(C)[nH]c(C)c1S(=O)(=O)NCC1CCN(Cc2ccc(C)cc2)CC1 meas_value=-60.2
molecule=COC(=O)c1cc(S(=O)(=O)NCC2CCN(Cc3ccccc3F)CC2)c[nH]1 meas_value=-21.4
